Ref: paper PMC6272605

Listed below: IC50 values for each entry.
# assay target: purified human lactate dehydrogenase isoform 5 (hLDH5) (Homo sapiens)
# experiment: hLDH5 inhibition assay (pyruvate→lactate, NADH fluorescence)
# stated conditions: 200 μM pyruvate, 40 μM NADH, phosphate buffer pH 7.4, 15 min incubation

compound	IC50
Cc1ccc(C(N)C(=O)O)cc1 (centres unmarked)	> 500 µM

I have this compound here, O=C(O)CCCC(=O)Nc1ccccc1 , and I need its recorded IC50.
> 500 µM

I have this compound here, CC(C)C(NC(=O)OCc1ccccc1)C(=O)Nc1ccccc1 (centres unmarked) , and I need its recorded IC50.
246 µM

I have this compound here, O=c1cc2oc(O)c3cc(O)c(O)c(O)c3c-2oc1=O , and I need its recorded IC50.
91.7 µM

I have this compound here, COC(=O)C(NC(=O)c1cc([N+](=O)[O-])cc([N+](=O)[O-])c1)c1ccccc1 (centres unmarked) , and I need its recorded IC50.
269 µM

I have this compound here, O=C(O)c1ccc(NCCO)cc1 [VS1, 4-((2-Hydroxyethyl)amino)benzoic acid] , and I need its recorded IC50.
> 500 µM

----------
# assay target: purified human lactate dehydrogenase isoform 5 (hLDH5) (Homo sapiens)
# experiment: hLDH5 inhibition assay (pyruvate→lactate, NADH fluorescence)
# stated conditions: 200 μM pyruvate, 40 μM NADH, phosphate buffer pH 7.4, 15 min incubation
observable: IC50

Some entries whose results are on file:
compound	observable	assay value
O=C(O)CN1CC(c2ccccc2)OC1=O (centres unmarked)	IC50	> 500 µM
Cc1ccc(C)c(C(O)C(=O)O)c1 (centres unmarked)	IC50	> 500 µM
Cc1ccc(S(=O)(=O)Nc2ccc(C(=O)O)cc2)cc1	IC50	> 500 µM
O=C(O)CCC(=O)c1ccc(F)cc1	IC50	> 500 µM

Moving on to the next compound.
I have this compound here, O=C(O)c1cc2c(C(F)(F)F)cc(-c3ccccc3)cc2n1O , and I need its recorded IC50.
51.7 µM
